# target.or.test.system: hChoKβ FL (Homo sapiens, UniProt Q9Y259)
# Construct: hChoKβ full length (FL), corresponding to aminoacids 2-395; GST (N, cleaved yes); PreScission Protease recognition site (N); made in house; host or cells: Escherichia coli BL21pLysS (DE3)
# Sequence (Q9Y259 2-395): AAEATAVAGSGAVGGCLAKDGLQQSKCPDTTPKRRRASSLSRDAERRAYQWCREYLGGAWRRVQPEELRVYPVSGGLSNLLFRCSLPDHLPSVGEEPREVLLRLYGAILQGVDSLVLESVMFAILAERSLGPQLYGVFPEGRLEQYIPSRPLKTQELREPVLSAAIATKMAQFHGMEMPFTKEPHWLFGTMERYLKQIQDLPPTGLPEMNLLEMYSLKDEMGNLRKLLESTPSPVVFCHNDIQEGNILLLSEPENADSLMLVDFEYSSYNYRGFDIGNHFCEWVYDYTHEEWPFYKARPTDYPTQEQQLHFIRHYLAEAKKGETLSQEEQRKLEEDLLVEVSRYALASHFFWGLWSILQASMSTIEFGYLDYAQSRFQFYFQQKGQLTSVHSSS
# procedure.text: Biochemical kinase inhibition assay (Kinase-Glo luminescent) on hChoKβ FL
# study.conditions: recombinant hChoKβ FL 30 nM, ATP 5 μM, choline 20 μM, 60 min rt; read-out: ChoKβ IC50
property.name: IC50 (nM)

> print(dat)
                                    molecule  quantity.unit  value.relation.sign  observed
 1  CN(C)[C@@H]1CCN(Cc2csc(NC(=O)c3nn(C)c4c3C(C)(C)Cc3cnc(N)nc3-4)n2)C1 [compound 147]             nM                    >     10000
 2  CCOC(=O)c1cccc(NC(=O)c2n[nH]c3c2C(C)(C)Cc2cnc(N)nc2-3)c1 [compound 17]             nM                    =      2290
 3  CC1(C)Cc2cnc(N)nc2-c2[nH]nc(C(=O)Nc3nc(CC(=O)N4CCC(N5CCCCC5)CC4)cs3)c21 [compound 39]             nM                    =        84
 4  CC1(C)CCC(N2CCC(OCc3csc(NC(=O)c4n[nH]c5c4C(C)(C)Cc4cnc(N)nc4-5)n3)CC2)CC1 [compound 190]             nM                    =       546
 5  CC1(C)Cc2cnc(N)nc2-c2[nH]nc(C(=O)Nc3nc4ccccc4s3)c21 [compound 62]             nM                    =       465
 6  CC1(C)Cc2cnc(N)nc2-c2[nH]nc(C(=O)Nc3nc(COC4CCN(C5CCCCC5)CC4)cs3)c21 [compound 157]             nM                    =       292
 7  CC1(C)Cc2cnc(N)nc2-c2[nH]nc(C(=O)Nc3nc(C(=O)NC4CCCCC4)cs3)c21 [compound 68]             nM                    >     10000
 8  CNC(=O)c1ccc(NC(=O)c2n[nH]c3c2C(C)(C)Cc2cnc(N)nc2-3)cc1 [compound 27]             nM                    =       444
 9  CC1CCN(C2CCN(C(=O)C(F)(F)c3csc(NC(=O)c4n[nH]c5c4C(C)(C)Cc4cnc(N)nc4-5)n3)CC2)CC1 [compound 191]             nM                    =       303
10  CCOC(=O)c1ccc(NC(=O)c2n[nH]c3c2C(C)(C)Cc2cnc(N)nc2-3)cc1 [compound 5]             nM                    =      2590
11  CC1CCN(C2CCN(C(=O)c3ccc(NC(=O)c4n[nH]c5c4C(C)(C)Cc4cnc(N)nc4-5)cc3)CC2)CC1 [compound 52]             nM                    =        70
12  CC1(C)Cc2cnc(N)nc2-c2[nH]nc(C(=O)Nc3ccc(C(=O)NC4CCC4)cc3)c21 [compound 30]             nM                    =       136
13  COC(=O)C1(c2csc(NC(=O)c3n[nH]c4c3C(C)(C)Cc3cnc(N)nc3-4)n2)CC1 [compound 127]             nM                    >     10000
14  CC1(C)Cc2cnc(N)nc2-c2[nH]nc(C(=O)Nc3nc4ccc(Cl)cc4s3)c21 [compound 64]             nM                    =      4920
15  CC1(C)Cc2cnc(N)nc2-c2[nH]nc(C(=O)Nc3nc(CC(=O)N4CCN(C5CCCCC5)CC4)cs3)c21 [compound 150]             nM                    =       352
16  CC1(C)Cc2cnc(N)nc2-c2[nH]nc(C(=O)Nc3nc(COC4CCN(C5CCCCCC5)CC4)cs3)c21 [compound 223]             nM                    =       184
17  CC1(C)Cc2cnc(N)nc2-c2[nH]nc(C(=O)Nc3ccc(C(=O)N4CCC(N5CCCC5)CC4)cc3)c21 [compound 13]             nM                    =       122
18  Cc1csc(NC(=O)c2nn(CCO)c3c2C(C)(C)Cc2cnc(N)nc2-3)n1 [compound 182]             nM                    >     10000
19  CC1(C)Cc2cnc(N)nc2-c2[nH]nc(C(=O)Nc3nc(C(=O)O)cs3)c21 [compound 67]             nM                    =       703
20  CN1CCC(NC(=O)c2cccc(NC(=O)c3n[nH]c4c3C(C)(C)Cc3cnc(N)nc3-4)c2)CC1 [compound 10]             nM                    =       817
21  Cn1nc(C(=O)Nc2ccc(CN3CCC(N4CCCCC4)CC3)cc2)c2c1-c1nc(N)ncc1CC2(C)C [compound 128]             nM                    >     10000
22  CC1(C)Cc2cnc(N)nc2-c2[nH]nc(C(=O)Nc3nc(C4(C(=O)N5CCC(N6CCCCC6)CC5)CC4)cs3)c21 [compound 131]             nM                    =      3940
23  CC1(C)Cc2cnc(N)nc2-c2[nH]nc(C(=O)Nc3cccc(C(=O)O)c3)c21 [compound 18]             nM                    =      6350
24  CC1(C)Cc2cnc(N)nc2-c2[nH]nc(C(=O)Nc3ccc(C(=O)N4CCC(N5CCOC5=O)CC4)cc3)c21 [compound 56]             nM                    =       810
25  CC1(C)Cc2cnc(N)nc2-c2[nH]nc(C(=O)Nc3ccc(CC(=O)N4CCC(N5CCCCC5)CC4)cc3)c21 [compound 98]             nM                    =      1290
26  CC1(C)Cc2cnc(N)nc2-c2[nH]nc(C(=O)Nc3nc(COC4CCN(C5CCCCCC5)CC4)cs3)c21 [compound 209]             nM                    =       230
